Target Desc: growth factor receptors
Assay: cell-based or functional assay
No end group written: not given here.
Record Criterion met whenever p-Smad1/5/8 (%) is at 40% or higher; record Criterion not met when lower.

RNVQCRPTQLEPLPIVYYEIVRKKPEQLSNTLE (not fully specified) [GFR-binding compound of SEQ ID NO: 95] = Criterion not met

Here's the next entry for you.
Input line: Kindly determine if p-Smad1/5/8 (%) recorded for VPEKMSSLSILFFDENKNVVLKVYPNMAVS (not fully specified) [GFR-binding compound of SEQ ID NO: 73] is above or exactly 40%.
Output line: Criterion met
